Assay: method code SF-HPLC, from DOI: 10.1016/j.bmc.2003.11.030, PMID: 14759727
Settings: pH 7.4
MEASURE NAME: logD
Numbers only.

Answered cases to consult:
FC(F)(F)c1ccc2[nH]c(NCCCc3c[nH]cn3)nc2c1	3.03
Clc1ccc2[nH]c(NCCc3c[nH]cn3)nc2c1	2.31

Go through the list and state logD for each entry.
1. FC(F)(F)c1ccc2[nH]c(NCCc3c[nH]cn3)nc2c1
2. O=[N+]([O-])c1ccc2[nH]c(NCCc3c[nH]cn3)nc2c1
3. CCOC(=O)c1ccc2[nH]c(NCCc3c[nH]cn3)nc2c1

1: 2.82; 2: 1.81; 3: 2.28
